System: 926638-142-R-J1-PDC complex spheroid viability;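 further: spheroids exposed to drugs for one week before readout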
Assay: Anticancer human tumor 926638-142-R-J1-PDC patient-derived endometrial carcinoma cell line growth inhibition [POLQ]
Conditions: curve of first compound; second compound 0.1 µM
value_type: pIC50
# pIC50 = -log10(concentration in molar units)

{"compound": "CC[C@@]1(O)C(=O)OCc2c1cc1n(c2=O)Cc2cc3c(CN(C)C)c(O)ccc3nc2-1 + COC1C(OC(N)=O)C(O)C(Oc2ccc3c(O)c(NC(=O)c4ccc(O)c(CC=C(C)C)c4)c(=O)oc3c2C)OC1(C)C", "measured_result": 7.06}
{"compound": "CC1COCCN1c1cc(-c2ccnn2C)c2ccnc(-c3ccn[nH]3)c2n1 (stereo unspecified) + Nc1ccc(C#CCN(C(=O)Cc2ncc(C(F)(F)F)cc2C(F)(F)F)c2ccc(F)cc2)nn1", "measured_result": 6.41}
{"compound": "COc1ccc([C@@H](O)c2cc(-c3ncnc4cc(N5CCOCC5)ccc34)c(F)cc2Cl)nn1 + Nc1ccc(C#CCN(C(=O)Cc2ncc(C(F)(F)F)cc2C(F)(F)F)c2ccc(F)cc2)nn1", "measured_result": 6.35}

*Q* Look up pIC50: CCc1cc2c(N3CCc4c(cc(Cn5ccnc5)cc4-c4cn(C)nc4C(F)(F)F)C3=O)cc(C)nc2c(OC)n1 + Cc1cccc(N(C)C(=O)C2C(O)CCN2c2nc(C)cc(C(F)(F)F)c2C#N)c1
*A* 6.18

*Q* Look up pIC50: C=CCn1c(=O)c2cnc(Nc3ccc(N4CCN(C)CC4)cc3)nc2n1-c1cccc(C(C)(C)O)n1 + Cc1cccc(N(C)C(=O)C2C(O)CCN2c2nc(C)cc(C(F)(F)F)c2C#N)c1
*A* 6.15

*Q* Look up pIC50: COc1cccc2c1C(=O)c1c(O)c3c(c(O)c1C2=O)CC(O)(C(=O)CO)CC3OC1CC(N)C(O)C(C)O1 (stereo unspecified) + Nc1ccc(C#CCN(C(=O)Cc2ncc(C(F)(F)F)cc2C(F)(F)F)c2ccc(F)cc2)nn1
*A* 6.85

*Q* Look up pIC50: CCc1c2c(nc3ccc(O)cc13)-c1cc3c(c(=O)n1C2)COC(=O)[C@]3(O)CC + COC1C(OC(N)=O)C(O)C(Oc2ccc3c(O)c(NC(=O)c4ccc(O)c(CC=C(C)C)c4)c(=O)oc3c2C)OC1(C)C
*A* 7.90

*Q* Look up pIC50: CC1COCCN1c1cc(-c2ccnn2C)c2ccnc(-c3ccn[nH]3)c2n1 (stereo unspecified) + Cc1cccc(N(C)C(=O)C2C(O)CCN2c2nc(C)cc(C(F)(F)F)c2C#N)c1
*A* 6.47

*Q* Look up pIC50: CC[C@@]1(O)C(=O)OCc2c1cc1n(c2=O)Cc2cc3c(CN(C)C)c(O)ccc3nc2-1 + Cc1cccc(N(C)C(=O)C2C(O)CCN2c2nc(C)cc(C(F)(F)F)c2C#N)c1
*A* 7.13
